Test: Cytotoxicity against human SKW3 cells after 72 hrs by MTT assay
Format: functional, cell-based
Settings: SKW3, 72 h
quantity.measured: IC50 (nM)

COc1cc([C@@H]2c3cc4c(cc3[C@@H](O[C@@H]3O[C@@H]5CO[C@@H](C)O[C@H]5[C@H](O)[C@H]3O)[C@H]3COC(=O)[C@H]23)OCO4)cc(OC)c1O [ETOPOSIDE]    820
